- Test Details: qHTS for Activators of Parkin Expression: LOPAC Validation Assay (NLuc Reporter) (AID 720572)
- Stated Conditions: Parkin promoter NanoLuc reporter cells, luminescence; series mostly up to 46.1 µM
Results filed as inconclusive are left out. Active and inactive are the calls of the source. Calls come from the whole dose curve; as a rule, active = well fitted activation curve with a large enough effect; inconclusive = small, poorly fitted or top-dose-only effect; inactive = flat fitted curve, though single readings scatter.
In this exercise, the only acceptable responses are active, inactive

**Q:** Per the records of this test, what outcome belongs to CN1C2CCC1CC(OC(c1ccccc1)c1ccccc1)C2 (stereo unspecified) ?
**A:** inactive

Others:
**Q:** Would you mind telling me which call this test gave NCC(O)C1CCCCCCC1 (stereo unspecified) ?
**A:** inactive

**Q:** Recorded call for "Cc1ccc([N+](=O)[O-])cc1S(=O)(=O)N(C)C" ?
**A:** inactive

**Q:** Hey, what did the test say about "CCCc1c(-c2ccc(O)cc2)nn(-c2ccc(O)cc2)c1-c1ccc(O)cc1" ?
**A:** active

**Q:** GET /call?item= "CC(=O)N[C@@H](Cc1c[nH]c2ccccc12)C(=O)OCc1cc(C(F)(F)F)cc(C(F)(F)F)c1" returns the recorded outcome of this test.
**A:** inactive

**Q:** Assay outcome for "CC(=O)O[C@H]1Cc2ccccc2N(C(N)=O)c2ccccc21" : what was it?
**A:** inactive

###

- Tgt: DNA repair nuclease/redox regulator APEX1 (Homo sapiens) (UniProt P27695)
- Sequence (P27695 whole entry, looked up): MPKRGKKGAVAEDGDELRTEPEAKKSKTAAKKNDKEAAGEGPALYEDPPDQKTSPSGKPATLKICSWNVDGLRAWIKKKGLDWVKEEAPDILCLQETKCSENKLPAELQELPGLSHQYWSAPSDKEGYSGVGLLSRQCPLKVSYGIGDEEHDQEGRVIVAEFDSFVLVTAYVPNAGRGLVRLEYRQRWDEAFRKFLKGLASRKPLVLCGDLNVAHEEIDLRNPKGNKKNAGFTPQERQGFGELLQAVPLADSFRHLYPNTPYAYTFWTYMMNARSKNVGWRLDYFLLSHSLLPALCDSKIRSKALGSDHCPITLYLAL
- Test Details: qHTS Validation Assay for Inhibitors of the Human Apurinic/apyrimidinic Endonuclease 1 (APE1) (AID 1705;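 note: TAMRA fluorescence gain over two minutes as APE1 cuts a quenched THF abasic duplex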)
- Stated Conditions: purified APE1 endonuclease activity, fluorescence, titration; series mostly up to 57.1 µM
- Description: Assay Provider: David M. Wilson, III, National Institute on Aging, NIH Screening Center PI: Austin, C.P. Screening Center: NIH Chemical Genomics Center [NCGC] […] Three uL of enzyme were dispensed to 1536-well Greiner black solid bottom plates. […] The plates were immediately transferred into ViewLux High-throughput CCD imager (Perkin-Elmer) in order to measure the reaction progress in kinetic mode (three reads every 60 seconds) using 525 nm excitation and 598 nm emission fluorescence protocol. […]
Inconclusive results are not listed. The source made the active and inactive calls. Calls come from the whole dose curve; as a rule, active = well fitted inhibition curve with a large enough effect; inconclusive = small, poorly fitted or top-dose-only effect; inactive = flat fitted curve, though single readings scatter.
Measure Name: outcome

Query Cc1cccc(C)c1OCC(N)C(C)C (configuration not stated) on DNA repair nuclease/redox regulator APEX1 (Homo sapiens) (UniProt P27695); outcome returned: inactive

// compound "CC(=O)C(C)=O" , assay DNA repair nuclease/redox regulator APEX1 (Homo sapiens) (UniProt P27695), outcome value: inactive

Form field, outcome with DNA repair nuclease/redox regulator APEX1 (Homo sapiens) (UniProt P27695), item "CC(C)NC[C@H](O)COc1ccc(CC(N)=O)cc1" : inactive

The value of outcome recorded for "CC[C@@H]1Cc2cc(O)ccc2C2=C1c1ccc(O)cc1C[C@H]2CC" when tested on DNA repair nuclease/redox regulator APEX1 (Homo sapiens) (UniProt P27695) reads inactive

Tested system DNA repair nuclease/redox regulator APEX1 (Homo sapiens) (UniProt P27695); outcome recorded for "CC[N+](CC)(CC)CC(=O)Nc1c(C)cccc1C" was inactive

---
Measured on DNA repair nuclease/redox regulator APEX1 (Homo sapiens) (UniProt P27695), CC(C)C[C@H](NC(=O)C1OC1C(=O)O)C(=O)NCCCCN=C(N)N (some centres not stated) has a documented outcome of inactive

Note to self: outcome of "Fc1ccc(CN(C2=NCCN2)c2c(Cl)cccc2Cl)cc1" with DNA repair nuclease/redox regulator APEX1 (Homo sapiens) (UniProt P27695) was inactive

Where these numbers come from: PubChem BioAssay (NCATS)
